Each entry below carries its recorded CC50.
# test description: NOVARTIS: Cytotoxicity against human hepatocellular carcinoma cell line (Huh7)
# Assay type: toxicity, cell-based, Huh-7
# condition set: Huh7 cells (hepatocellular carcinoma cell line)

Worked cases, CC50 given:
compound	CC50
Nc1nonc1-n1nnc(C(=O)NN=Cc2ccc(F)c(Br)c2)c1-c1ccc([N+](=O)[O-])cc1	> 100 µM
COc1cc2nc(Nc3ccc(F)cc3)nc(N)c2cc1OC	18.4 µM
CCOC(=O)C1=C(CC)NC2=C(C(=O)CCC2)C1c1ccc(OC)c(Br)c1 (centres undefined)	> 83.8 µM
CCOC(=O)C1=C(C)N=c2sc(=Cc3ccc(I)o3)c(=O)n2C1c1ccccc1Cl (centres undefined)	> 5.49 µM

Entry under review: COC(=O)C1=C(C)NC2=C(C(=O)CC(c3ccc(OC)c(OC)c3)C2)C1c1ccc(F)cc1 (centres undefined) . Reported CC50?
> 100 µM

Now this one: Cc1cc(/C=C2\SC(=Nc3ccccc3)N(C3CCCCC3)C2=O)c(C)n1-c1ccc(F)cc1
> 100 µM

Also CCN1/C(=C/C=C/c2oc3ccc(-c4ccccc4)cc3[n+]2CC)Oc2ccc(-c3ccccc3)cc21 , if possible.
> 10 µM

Also check COC(=O)C1=CNC=C(C(=O)OC)C1c1ccc(Cl)c(Cl)c1
> 64.9 µM

CC1C/C(=C/c2ccncc2)C(=O)/C(=C/c2ccncc2)C1 (centres undefined) ?
> 10 µM

Continue with COc1cc(OC)cc(-n2nc(C(=O)NCCCN3CC(C)CC(C)C3)c3ccccc3c2=O)c1 (centres undefined)
> 100 µM

Quick one: COc1ccc(C=CC(=O)NC(=O)c2ccccc2O)cc1
> 73.5 µM

Same thing, different compound: COc1cncc(-c2cncc(-c3ccc(Oc4ccccc4)cc3)n2)c1
> 100 µM

Lookup N=c1c2ccccc2nnn1-c1ccc(C(F)(F)F)cc1
> 100 µM

Input COc1ccc(CCNc2nc(NCCCN3CCCCC3C)ncc2C(=O)NCc2ccccc2)cc1OC (centres undefined)
> 10 µM
